Can you tell me viability at 100 µM for the items I'm about to list?
- Tested on: HepG2
- test: Cytotoxicity against human HepG2 cells assessed as cell viability at 100 uM after 72 hrs by MTS assay
- measurement setup: HepG2, 72 h
# value in %; strip the unit string

State the recorded viability at 100 µM for this entry: C#CCO[C@H]1C[C@H](N)[C@@H](O)[C@H](C)O1
105

What about this molecule? Cc1ccc(S(=O)(=O)n2c(-c3ccccc3)c(I)c3ccccc32)cc1
90

Consider next the molecule c1ccc(-c2cc3ccccc3o2)cc1 in the same way.
88

Can you check c1ccc(-c2cc3ccccc3s2)cc1 next?
88

Next record, please: Cc1ccc(S(=O)(=O)n2c(-c3ccccc3)cc3ccccc32)cc1
37

Let us now turn to Ic1c(-c2ccccc2)oc2ccccc12
84

Try this molecule next: OCC#Cc1c(-c2ccccc2)[nH]c2ccccc12
87

Cc1ccc(S(=O)(=O)n2c(-c3ccccc3)c(C#CCO)c3ccccc32)cc1 ?
37

Would you kindly repeat that for C#CCO[C@H]1CC[C@H](N)[C@H](C)O1 ?
112

Also check Ic1c(-c2ccccc2)[nH]c2ccccc12
91

Next molecule: c1ccc(-c2cc3ccccc3[nH]2)cc1
71
